The values you see were collected from PubChem BioAssay (NCATS).

# test.description: Quantitative High-Throughput drug screen in 47 multiple myeloma cell lines against the NCATS MIPE library collection: AMO1_DSMZ cell viability assay (AID 1918927; note: nearly all actives have a fitted effect of over 30% in size)
# assay.conditions: AMO1 myeloma cells viability, CellTiter-Glo ATP luminescence, 48 h; series mostly up to 45.8 µM
Records with an inconclusive call do not appear. Active and inactive are the calls of the source. Calls come from the whole dose curve; as a rule, active = well fitted cell-killing curve with a large enough effect; inconclusive = small, poorly fitted or top-dose-only effect, or effect the other way; inactive = no such curve, though single readings can be large or run the other way.
Possible outcomes: active, inactive

• CC(C)(C)OC(=O)Nc1ccc(-c2cc(C(=O)NCCCCCCC(=O)NO)no2)cc1 = active
• Clc1cccc(-c2nnnn2Cc2cccnc2)c1Cl = inactive
• C[C@]12CC[C@H](O)CC1=CCC1C2CC[C@]2(C)C(n3cnc4ccccc43)=CCC12 (stereo not given in full) = inactive
• O=C(Cc1ccc(-c2ccc(OCCN3CCOCC3)cc2)cn1)NCc1ccccc1 = active
• Nc1ccn([C@@H]2CS[C@H](CO)O2)c(=O)n1 = inactive
• Cc1cn2cc(C(=O)N(C)CCO)cc(N[C@@H]3CCOc4cccc(C)c43)c2n1 = inactive
• CC(C)c1ccc(Cn2ccc3c4c(N)nc(NC5CC5)nc4ccc32)cc1 = active
• NC1(Cc2ccc(Cl)cc2)CCN(c2ncnc3[nH]ccc23)CC1 = active
• Cc1ccc(C(=O)Nc2ccc(CN3CCN(C)CC3)c(C(F)(F)F)c2)cc1C#Cc1cnc2cccnn12 = active
• Cc1coc2c1C(=O)C(=O)c1c-2ccc2c1CCCC2(C)C = active

---

# test.description: qHTS drug screen for cell cycle checkpoint inhibitors in PARPi-resistant BRCA-mutant ovarian cancer cell lines. (AID 1963452)
# assay.conditions: PEO1/OlaR viability, CellTiter-Glo luminescence, 96 h; measured here: PEO4 Z-AUC; stronger effect = lower value
Dear colleague, classification is by Z-AUC, with ranges listed here: bucket 1 = under -0.6, bucket 2 = from -0.6 up to 0.3, bucket 3 = 0.3 and over

* CNC(=O)c1ccc(-c2cnc3ncc(Cc4ccc5ncccc5c4)n3n2)cc1F | bucket 2
* CN1c2cc(O)c(N=NC(N)=O)cc2CC1S(=O)(=O)O (stereo not given) | bucket 3
* COc1cc(C(=O)NS(=O)(=O)c2ccccc2C)ccc1Cc1cn(C)c2ccc(NC(=O)OC3CCCC3)cc12 | bucket 3
* C1Cc2[nH]nc(-c3nn[nH]n3)c2C1 | bucket 1
* Cc1cc(N2CCOCC2)cc2[nH]c(-c3c(NC[C@@H](O)c4cccc(Cl)c4)cc[nH]c3=O)nc12 | bucket 2
* CC(C)C[C@H](NC(=O)CNC(=O)c1cc(Cl)ccc1Cl)B(O)O | bucket 1
* Cn1c2cc(S(C)=O)sc2c2cnn(Cc3cccc(N)c3)c(=O)c21 (stereo not given) | bucket 3
* CC(C)c1ccc(Cn2ccc3c4c(N)nc(NC5CC5)nc4ccc32)cc1 | bucket 1

---

# test.description: qHTS of pediatric cancer cell lines to identify multiple opportunities for drug repurposing: Primary screen for NB-EBc1 cells (AID 1347095)
# assay.conditions: NB-EBc1 neuroblastoma viability, CellTiter-Glo luminescence, 48 h; series mostly up to 46 µM
Results filed as inconclusive are left out. Activity calls are given as the source filed them. Calls come from the whole dose curve; as a rule, active = well fitted cell-killing curve with a large enough effect; inconclusive = small, poorly fitted or top-dose-only effect; inactive = no such curve, though single readings can be large or run the other way.
Possible outcomes: true (active), false (inactive)

• NC(=O)c1c(OCc2c(F)cc(Br)cc2F)nsc1NC(=O)NCCCCN1CCCC1 = true
• Nc1ccccc1NC(=O)c1ccc(CNc2nccc(-c3cccnc3)n2)cc1 = true
• CN1c2cc(O)c(N=NC(N)=O)cc2CC1S(=O)(=O)O (stereo not given) = false
• COc1cc2nccc(Oc3ccc(NC(=O)C4(C(=O)Nc5ccc(F)cc5)CC4)cc3)c2cc1OC = true
• C=CC(=O)Nc1cc2c(Nc3ccc(F)c(Cl)c3)ncnc2cc1OCCCN1CCOCC1 = true
• C[C@@H]1COC(Nc2ccc3ncnc(Nc4ccc(OCc5nccs5)c(Cl)c4)c3c2)=N1 = true
• Cc1nc(N)ncc1-c1nc(N2CCOCC2)c2sc(C(C)(C)O)cc2n1 = true
• O=c1[nH]c(=O)n(C2CCCO2)cc1F (stereo not given) = false
• O=C(O)c1ccc2c(c1)nc(Nc1cccc(Cl)c1)c1ccncc12 = true
• COc1cc(C(=O)N2CCC(N3CCN(C)CC3)CC2)ccc1Nc1ncc2c(n1)N(C)c1ccccc1C(=O)N2C = true
